Measured pIC50 by item
# tgt: cholesterol ester transfer protein (CETP) (Homo sapiens, UniProt P11597)
# Construct: CETP is obtained in partially purified form from human plasma by differential centrifugation and column chromatography
# Sequence (P11597 18-493): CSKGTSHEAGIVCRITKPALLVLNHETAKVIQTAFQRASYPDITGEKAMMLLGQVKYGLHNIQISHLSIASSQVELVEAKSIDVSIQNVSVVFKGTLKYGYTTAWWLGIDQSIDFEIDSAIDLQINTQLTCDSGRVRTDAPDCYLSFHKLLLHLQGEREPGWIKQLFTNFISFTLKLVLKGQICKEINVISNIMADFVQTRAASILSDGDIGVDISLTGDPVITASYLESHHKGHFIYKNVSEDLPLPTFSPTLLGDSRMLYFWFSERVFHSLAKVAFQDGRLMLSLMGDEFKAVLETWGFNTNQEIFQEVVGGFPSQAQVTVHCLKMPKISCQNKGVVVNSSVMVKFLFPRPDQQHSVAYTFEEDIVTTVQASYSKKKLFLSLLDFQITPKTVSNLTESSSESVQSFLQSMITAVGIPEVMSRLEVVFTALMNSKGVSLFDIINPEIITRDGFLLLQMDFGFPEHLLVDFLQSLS
# protocol_text: CETP inhibition testing: transfer of 3H-cholesterol ester from human HD lipoproteins to biotinylated LD lipoproteins (SPA)
# condition_info: 3H-CE transfer HDL to biotin-LDL, 37° C., 18 h
Just the number, please; pIC50 means minus log10 of the concentration in mol/L.

Observe how each entry below is paired with its result.
molecule	pIC50
CC(C)c1nc(-c2ccc(F)cc2)c(CO)c(-c2cccc(Cl)c2)c1Cc1ccc(C(F)(F)F)cc1 [Example 63]	6.00
CC(C)c1nc(-c2ccc(F)cc2)c(CO)c(-c2ccc(F)cc2)c1C(F)c1ccc(C(F)(F)F)cc1 (stereo not shown) [Example 31]	6.30
CC(C)c1nc(-c2ccc(F)cc2)c(C(C)O)c(-c2ccc(F)cc2)c1C(F)c1ccc(C(F)(F)F)cc1 (stereo not shown) [Example 3]	6.10
OCc1c(-c2ccc(F)cc2)nc(C2CCCCC2)c(C(F)c2ccc(C(F)(F)F)cc2)c1-c1ccc(F)cc1 (stereo not shown) [Example 51]	6.40
OCc1c(-c2ccc(F)cc2)nc(C2CCCC2)c(C(F)c2ccc3ccccc3c2)c1-c1ccc(F)cc1 (stereo not shown) [Example 68]	7.10

Enquiry: Tell me pIC50 reported for O=C(c1ccc(C(F)(F)F)cc1)c1c(C2CCCC2)nc(-c2cccc(C(F)(F)F)c2)c(CO)c1-c1ccc(F)cc1 [Example 14]
Return: 7.15

Enquiry: Tell me pIC50 reported for OCc1c(-c2ccc(Cl)cc2)nc(C2CCCC2)c(C(F)c2ccc(C(F)(F)F)cc2)c1-c1ccc(F)cc1 (stereo not shown) [Example 37]
Return: 6.52

Each recorded value in this set is attributed to patent US5925645A.
